AtheNA signal by entry:
# target or test system: T1, sclerosis autoantigen (Scl-70) (UniProt P11387 2-765, limits assumed)
# T1 sequence (looked up): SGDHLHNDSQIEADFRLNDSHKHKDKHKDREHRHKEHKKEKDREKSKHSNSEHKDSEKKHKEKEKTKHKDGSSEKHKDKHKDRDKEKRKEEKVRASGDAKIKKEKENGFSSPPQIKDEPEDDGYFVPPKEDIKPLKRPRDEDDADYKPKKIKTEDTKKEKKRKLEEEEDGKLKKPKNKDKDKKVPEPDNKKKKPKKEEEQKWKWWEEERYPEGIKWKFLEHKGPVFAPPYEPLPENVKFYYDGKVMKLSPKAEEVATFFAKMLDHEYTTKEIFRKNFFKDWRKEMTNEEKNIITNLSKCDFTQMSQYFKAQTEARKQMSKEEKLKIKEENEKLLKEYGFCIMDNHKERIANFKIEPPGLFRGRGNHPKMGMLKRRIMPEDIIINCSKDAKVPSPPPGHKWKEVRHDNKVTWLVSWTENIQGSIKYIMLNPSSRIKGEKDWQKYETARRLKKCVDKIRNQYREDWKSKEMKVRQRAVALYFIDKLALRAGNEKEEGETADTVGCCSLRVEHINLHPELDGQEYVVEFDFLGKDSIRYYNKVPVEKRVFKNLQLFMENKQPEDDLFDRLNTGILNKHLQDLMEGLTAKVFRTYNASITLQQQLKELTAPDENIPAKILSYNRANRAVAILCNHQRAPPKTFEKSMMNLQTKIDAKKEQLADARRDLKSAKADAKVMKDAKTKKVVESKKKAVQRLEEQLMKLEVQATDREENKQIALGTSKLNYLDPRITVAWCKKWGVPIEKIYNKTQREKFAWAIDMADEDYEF
# method: AtheNA Multi-Lyte ANA, Ab at 12.5 ug/ml;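 further: monoclonal antibodies screened for binding to a panel of nuclear autoantigens (SSA, SSB, Sm, RNP, Scl-70, Jo-1, dsDNA, CentB, histones), with anti-HIV and anti-RSV antibodies as controls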
Answer with a number only.

Recorded AtheNA signal, per entry:
>  <binder>
Ab7962/293i (antibody, V domains shown, Recombinant human antibody with IgG1 heavy chain backbone and kappa light chain constant (IgM in the donor B cell); they begin at LVESGGG and MTQSL; also called clone 27; pH007962/pK005996) VH: LVESGGGLVQPGGSLRLSCAASGFTFSSYEMNWVRQAPGKGLEWVSYISSSGSTIYYADSVKGRFTISRDNAKNSLYLQMNSLRAEDTAVYYCARVEQLAPSPYMDVWGKGTTVTVSS VL: MTQSLDSLTVSLGERATINCKSSQSLLYTSNNKNYLAWYQQKSGQPPKLLIYWASIRDSGVPDRFSGSGSATDFTLTINNLQAEDVAVYFCQQYYKTPLTFGGGTKVEVR

>  <AtheNA signal>
2

$$$$
>  <binder>
Ab7957/293i (antibody, IgG1, V domains shown, Recombinant human antibody with IgG1 heavy chain backbone and kappa light chain constant; they begin at LVESGGG and MTQSP; also called Ab7957i; mAb 7957) VH: LVESGGGVVPPGKSLRLSCAASGFTFSLYGIHWVRQAPGKGLEWVAVISYDGNTKYYTDSVKGRFTISRDNAKNTIYLQMNSLRLDDTAVYYCAKGAANSATFDFWGRGTMVTVSS VL: MTQSPDSLTLSLGERATINCRSSRTVLYRSNNKNYLAWYQHKPGQPPKLLMSWASTRETGVPDRFSGSGSGTHFTLTITSLQPEDVAVYYCQQYYSPPWTFGQGTKVEIR

>  <AtheNA signal>
2

$$$$

Next:
get_value(item= Ab7961/293i (antibody, IgG1, V domains shown, Recombinant human antibody with IgG1 heavy chain backbone and kappa light chain constant; they begin at LVESGGG and MTQSP; also called mAb 7961; clone 24) VH: LVESGGGVVQPGKSLRLSCVASGFTFSSYGMHWVRQAPGKGLEWVAVMSFDGKTKYYADSVKGRFTISRDNPKNTLYLQMNSLRSEDTAVYYCAKGGAAAAVFDSWGQGILLTVSS VL: MTQSPNSLAVSLGGRATINCKTSQSILYRSNNKNYLAWYQHKSGQPPKLLIYWASTRESGVPDRFSGSGSRTDFTLTISGLQAEDVAVYYCQQYYNPPWTFGQGTKVEIK , readout=AtheNA signal) returns 3
